Data origin: patent US12497370B2

Test system: fleas (Ctenocephalides felis)
assay_notes: In vitro evaluation of ingestion activity against fleas
condition_label: flea ingestion test, compound in organic bovine blood (0.5% DMSO), adult fleas, percent mortality between 2 h and 48 h post infestation, read-out: EC50 (the source's name)
Quick reference for LC50 among some compounds
measure_name: LC50

| compound | endpoint_result |
| --- | --- |
| Cc1cc(C2=NOC(c3cc(C(F)(F)F)cc(Cl)c3F)(C(F)(F)F)C2)ccc1C(=O)NCC(=O)NCC(F)(F)F (stereo not drawn) | < 1 µg/mL |
| Cc1cc(C2=NOC(c3cc(C(F)(F)F)cc(Cl)c3F)(C(F)(F)F)C2)ccc1C(=O)NC1(C)CSC1 (single isomer, unassigned) | < 1 µg/mL |
| Cc1cc(C2=NOC(c3cc(C(F)(F)F)cc(Cl)c3F)(C(F)(F)F)C2)ccc1C(=O)NCC1(S(C)(=O)=O)CC1 (single isomer, unassigned) | < 1 µg/mL |
| Cc1cc(C2=NOC(c3cc(C(F)(F)F)cc(Cl)c3F)(C(F)(F)F)C2)ccc1C(=O)NCC1(C#N)CC1 (single isomer, unassigned) | < 1 µg/mL |
| Cc1cc(C2=NO[C@](c3cc(C(F)(F)F)cc(Cl)c3F)(C(F)(F)F)C2)ccc1C(=O)N[C@H]1C[C@H](C(F)(F)F)C1 (single isomer, unassigned) | < 1 µg/mL |
| Cc1cc(C2=NOC(c3cc(C(F)(F)F)cc(Cl)c3F)(C(F)(F)F)C2)ccc1C(=O)Nc1cnn(CC#N)c1 (single isomer, unassigned) | < 3 µg/mL |
